From: ChEMBL document CHEMBL2057156

Molecular target: Tyrosyl-DNA phosphodiesterase 1 (Homo sapiens, UniProt Q9NUW8)
Sequence (Q9NUW8 whole entry): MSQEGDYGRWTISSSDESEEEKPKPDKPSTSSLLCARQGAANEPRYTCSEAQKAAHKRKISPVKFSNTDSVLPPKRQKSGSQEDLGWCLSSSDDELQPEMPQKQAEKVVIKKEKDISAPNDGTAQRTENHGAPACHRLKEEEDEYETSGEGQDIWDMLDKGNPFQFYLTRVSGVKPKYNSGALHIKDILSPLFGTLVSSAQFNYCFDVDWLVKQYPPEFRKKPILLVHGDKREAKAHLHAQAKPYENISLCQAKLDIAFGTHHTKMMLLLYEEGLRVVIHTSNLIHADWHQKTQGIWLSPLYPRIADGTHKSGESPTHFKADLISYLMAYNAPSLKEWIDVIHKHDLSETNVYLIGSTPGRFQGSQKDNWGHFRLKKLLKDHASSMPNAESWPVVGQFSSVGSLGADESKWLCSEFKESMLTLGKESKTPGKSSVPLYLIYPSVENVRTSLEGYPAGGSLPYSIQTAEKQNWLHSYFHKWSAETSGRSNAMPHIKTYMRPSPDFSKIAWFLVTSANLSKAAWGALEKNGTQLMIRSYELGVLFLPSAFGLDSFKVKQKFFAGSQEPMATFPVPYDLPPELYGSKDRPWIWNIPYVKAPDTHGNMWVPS
Test: Inhibition of human recombinant Tdp1 using 5'-[32P]-labeled single-stranded DNA oligonucleotide containing 3'-phosphotyrosine as substrate assessed as prevention of generation of oligonucleotide with free 3'-phosphate after 15 mins by PAGE analysis
pIC50: −log10 of the molar value.
Listing of recorded pIC50 by entry.

// solved cases for pIC50 follow
>>> df
                            smiles_notation  reported
0  NCCCCCn1c2c(c3ccccc3c1=O)C(=O)c1ccccc1-2      4.76
1  Cc1ccc(S(=O)(=O)OCCCCn2c3c(c4ccccc4c2=O)C(=O)c2ccccc2-3)cc1    < 3.95
2  Cc1ccc(S(=O)(=O)NCCCn2c3c(c4ccccc4c2=O)C(=O)c2ccccc2-3)cc1    < 3.95
3  O=C1c2ccccc2-c2c1c1ccccc1c(=O)n2CCCCCCCCNS(=O)(=O)c1ccccc1    < 3.95
4  COC(=O)c1ccc2c(c1)C(=O)c1c-2n(CCCNS(=O)(=O)c2ccccc2)c(=O)c2cc(OC)c(OC)cc12    < 3.95
5  CS(=O)(=O)NCCCCCCCCCn1c2c(c3ccccc3c1=O)C(=O)c1ccccc1-2    < 3.95
6  NCCCCCCCCn1c2c(c3ccccc3c1=O)C(=O)c1ccccc1-2      4.32
7  Cc1ccc(S(=O)(=O)OCCCCCCCn2c3c(c4ccccc4c2=O)C(=O)c2ccccc2-3)cc1    < 3.95

# ---- query compound ----
pIC50 of CS(=O)(=O)NCCCCCCCCn1c2c(c3ccccc3c1=O)C(=O)c1ccccc1-2 , assay on Tyrosyl-DNA phosphodiesterase 1 (Homo sapiens, UniProt Q9NUW8), is < 3.95
